tested on: PDX1258; experiment: GRmax, 72 h; higher = less effect
Measured GRmax, 72 h by item
Express it in GR; write the number only.

See these solved cases before continuing.
COc1cc2c(Oc3ccc4[nH]c(C)cc4c3F)ncnc2cc1OCCCN1CCCC1 [Cediranib/AZD2171] (max 10 µM)
-0.561
COc1ccc2c(c1)[C@]1(C[C@H]1c1ccc3c(/C=C/c4ccc(CN5C[C@@H](C)O[C@@H](C)C5)cc4)n[nH]c3c1)C(=O)N2
-0.0552
CCOc1cc2ncc(C#N)c(Nc3ccc(OCc4ccccn4)c(Cl)c3)c2cc1NC(=O)/C=C/CN(C)C [Neratinib/HKI272] (max 3.162 µM)
0.203

For the next question, use this molecule.
QUERY: Kindly state the measured GRmax, 72 h obtained for CCN1CCN(Cc2ccc(Nc3ncc(F)c(-c4cc(F)c5nc(C)n(C(C)C)c5c4)n3)nc2)CC1 (max 10 µM) with PDX1258.
RESULT: -0.331

====

Listing: area over the GR curve of selected compounds
system: HCC1937; assay: area over the GR curve, 72 h; higher = more effect
Your answer should be a plain number; it is taken to be in GR.

Solved entries (count: 2):
O=C(c1cc(Cc2n[nH]c(=O)c3ccccc23)ccc1F)N1CCN(C(=O)C2CC2)CC1 [Olaparib/AZD2281] (max 10 µM)
0.0584
CC(=O)c1c(C)c2cnc(Nc3ccc(N4CCNCC4)cn3)nc2n(C2CCCC2)c1=O (max 3.162 µM)
-0.0629

Continue with the compound presented below.
QUERY: Would you kindly share the measured area over the GR curve for CC(=O)O[C@H]1C(=O)[C@@]2(C)[C@H]([C@H](OC(=O)c3ccccc3)[C@]3(O)C[C@H](OC(=O)[C@H](O)[C@@H](NC(=O)c4ccccc4)c4ccccc4)C(C)=C1C3(C)C)[C@]1(OC(C)=O)CO[C@@H]1C[C@@H]2O [Paclitaxel] (max 1 µM) ?
RESULT: 0.658

====

tested on: MDAMB175VII; assay: GRmax, 72 h; higher = less effect;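 also: breast cell lines in 384-well plates, nine doses across a 10^4 range, Dye Drop imaging of viable cells vs DMSO and time-zero plates, GR 0 means no net growth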
measurement-label: GRmax, 72 h (GR)
Could you give me the number in GR? Just the number is fine.

Here are 3 compounds together with their reported answers.
Cc1nn(C)c(COc2ccc(N3CCN(S(=O)(=O)N(C)C)CC3)cc2)c1-c1cccc2c(CCCOc3cccc4ccccc34)c(C(=O)O)n(CCN3CCOCC3)c12 (max 10 µM)
0.705
CCc1cnn2c(NCc3ccc[n+]([O-])c3)cc(N3CCCC[C@H]3CCO)nc12 (max 1 µM)
-0.493
C=CC(=O)Nc1ccc(C(=O)Nc2[nH]nc3c2CN(C(=O)N[C@H](CN(C)C)c2ccccc2)C3(C)C)cc1 [YKL-5-124] (max 10 µM)
-0.771

Now take the following compound into account.
QUERY: Record request: GRmax, 72 h value, item CN1CC[C@H](c2c(O)cc(O)c3c(=O)cc(-c4ccccc4Cl)oc23)[C@H](O)C1 [Flavopiridol] (max 1 µM)
RESULT: -0.309

====

system: MGH312; experiment: area over the GR curve, 72 h; higher = more effect;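 also: Dye Drop or Deep Dye Drop imaging of viable cells in 384-well plates (Hoechst nuclei, LIVE/DEAD dye), nine half-log doses, GR normalized to DMSO controls and time-zero plates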
measurement-label: area over the GR curve (GR)
Just the number in GR, nothing appended.

Here's what some known entries look like.
Cc1nc(-c2cn3c(n2)-c2ccc(-c4cnn(C(C)(C)C(N)=O)c4)cc2OCC3)n(C(C)C)n1 [Taselisib/GDC0032] (max 10 µM)
0.886
CC[C@@H]1C(=O)N(C)c2cnc(Nc3ccc(C(=O)N[C@H]4CC[C@H](N5CCN(CC6CC6)CC5)CC4)cc3OC)nc2N1C(C)C [Volasertib/BI6727] (max 1 µM)
0.801
CN(C)C(=O)c1cc2cnc(Nc3ccc(N4CCNCC4)cn3)nc2n1C1CCCC1 [LEE011/Ribociclib] (max 10 µM)
-0.0019

QUERY: What measured area over the GR curve goes with CN(C)CC[C@H](CSc1ccccc1)Nc1ccc(S(=O)(=O)NC(=O)c2ccc(N3CCN(Cc4ccccc4-c4ccc(Cl)cc4)CC3)cc2)cc1[N+](=O)[O-] [ABT-737] (max 10 µM) ?
RESULT: 0.224

QUERY: Need area over the GR curve, item COc1cc2nccc(Oc3ccc(NC(=O)C4(C(=O)Nc5ccc(F)cc5)CC4)cc3)c2cc1OC [Cabozantinib] (max 10 µM)
RESULT: -0.0125

QUERY: Name the reported area over the GR curve value associated with the compound CO[C@@H](C)Cn1c(=O)n(C)c2cnc3ccc(-c4cncc(C(C)(C)O)c4)cc3c21 (max 10 µM)
RESULT: 1.21
